The measured values listed here are drawn from patent US20190161551A1.

- TESTED_SYSTEM: human TrkB expressed on HEK293/SRE-Luc/hTrkB cells (human, UniProt Q16620 32-822)
- Sequence (Q16620 32-822): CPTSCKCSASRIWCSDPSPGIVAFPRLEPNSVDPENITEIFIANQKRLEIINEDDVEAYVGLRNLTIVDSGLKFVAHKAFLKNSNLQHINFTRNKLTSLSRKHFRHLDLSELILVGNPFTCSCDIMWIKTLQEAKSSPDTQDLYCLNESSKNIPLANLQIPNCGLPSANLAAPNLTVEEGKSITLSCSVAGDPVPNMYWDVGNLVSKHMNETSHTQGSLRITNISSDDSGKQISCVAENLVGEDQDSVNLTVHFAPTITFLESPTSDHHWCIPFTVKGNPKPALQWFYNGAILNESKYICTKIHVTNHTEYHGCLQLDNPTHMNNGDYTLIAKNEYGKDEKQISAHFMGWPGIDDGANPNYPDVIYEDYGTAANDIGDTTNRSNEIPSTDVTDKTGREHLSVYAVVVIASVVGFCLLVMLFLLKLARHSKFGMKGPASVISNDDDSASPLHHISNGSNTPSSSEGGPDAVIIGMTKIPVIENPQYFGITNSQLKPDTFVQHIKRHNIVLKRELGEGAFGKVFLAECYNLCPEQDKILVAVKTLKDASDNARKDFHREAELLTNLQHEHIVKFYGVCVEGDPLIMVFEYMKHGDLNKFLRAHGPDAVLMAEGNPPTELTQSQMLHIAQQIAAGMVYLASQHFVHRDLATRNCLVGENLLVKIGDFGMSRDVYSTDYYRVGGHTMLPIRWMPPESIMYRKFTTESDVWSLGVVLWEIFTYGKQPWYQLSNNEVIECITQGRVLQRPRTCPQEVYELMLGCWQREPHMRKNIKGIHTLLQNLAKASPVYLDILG
- ASSAY_REMARKS: cell-based or functional assay
A collection of binders and their measured Activation (%), SRE-luciferase, No BDNF
Expressed in %, but write only the number.

Examples with answers:
{"BINDER": "M2aM14179N (antibody, mouse IgG2a, kappa, V domains shown, Anti-mouse TrkB antibody from hybridoma, mouse IgG2a Fc; also called surrogate anti-mouse TrkB antibody) VH: EVQLQQSGPELVKPGASVKISCKASGYTLTDYYMNWVKQSHGKSLEWIGDINPNNGGTSYNQKFKGKATLTVDKSSSTAYMELRSLTSEDSAVYYCARGAYYSNYFDYWGQGTTLTVSS VL: DIVMSQSPSSLAVSAGEKVTMSCKSSQSLLNSRTRKNYLAWYQQKPGQSPKLLIYWASTRESGVPDRFTGSGSGTDFTLTISSVQAEDLAVYYCKQSYILFTFGSGTQLEIKR", "UNIT_ABBREV": "%", "Activation (%), SRE-luciferase, No BDNF": 4}
{"BINDER": "M2aM14178N (antibody, mouse IgG2a, V domains shown, Anti-mouse TrkB antibody from hybridoma, mouse IgG2a Fc; also called surrogate anti-mouse TrkB antibody) VH: EVQLVESGGGLVKPGGSLKLSCTASGFTFSSYAMSWVRQTPEKRLEWVANISDGGTYTYYPDNIKGRFTISRDNAKNNLYLQMSHLESEDTAMYYCIRGDVYYVRFAYWGQGTLVTVSA VL: QAVVTQESALTTSPGETVTLTCRSSTGAVTSSNHANWVQEKPDHLFTGLIGGTNNRAPGVPARFSGSLIGDKAALTITGAQTEDEAIYFCALWHSNHWVFGGGTKLTVLG", "UNIT_ABBREV": "%", "Activation (%), SRE-luciferase, No BDNF": 0}
{"BINDER": "H1M8037C (antibody, mouse IgG1, kappa, V domains shown, captured by anti-mFc in SPR; also called Comparator; comparator anti-TrkB monoclonal antibody) VH: QVQLVQSGAEVKKPGASVKVSCKASGYTFTNYDIIWVRQAPGQGLEWMGYINPYNDGTKYNEKFKGRVTMTRDTSTSTVYMELSSLRSEDTAVYYCARLLKYRRFRYYAIDYWGQGTTVTVSS VL: DIQMTQSPSSLSASVGDRVTITCRTSENVYSNLAWYQQKPGKAPKLLIYAASNLQSGVPSRFSGSGSGTDYTFTISSLQPEDIATYYCQHFWGSPFTFGQGTKLEIKR", "UNIT_ABBREV": "%", "Activation (%), SRE-luciferase, No BDNF": 80}

Kindly consider the entry below.
Activation (%), SRE-luciferase, No BDNF reading for M2aM14173N (antibody, mouse IgG2a, kappa, V domains shown, Anti-mouse TrkB antibody from hybridoma, mouse IgG2a Fc; also called surrogate anti-mouse TrkB antibody) VH: NVSLVESGGGSVKPGGSLQLSCAASGFTFSSSAMSWIRQTPEMRLEWVATISDRGSYTYYPDSVEGRFTISRDNAKNILYLQMSHLMSEDTAMYYCARGKGEKAYYTAFFAYWGQGSLVTVSA VL: DIQMTQSPASLSASVGETVTITCRASENIYSYLAWYQQKPGKSPHLLVHNAETLAEGVPSRFSGSGSGPQFSLKINSLQPGDSGTYYCQHHYSSPWTFGGGTKLEIKR : 2
